biological target: T1, HLA-A*0201 (human); assay: iTopia off-rate;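 further: Half-life of peptide complexes with plate-bound HLA-A2, peptides loaded 18 h at 21 C, washed, then held at 37 C over several time points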
T1 construct: also called HLA-A2.1; HLA A2.1

binder: KVYEQLDVT [cdr2 82-90 KVYEQLDVT]
t1/2: 1.3
//
binder: MLQAQLSLE [cdr2 204-212 MLQAQLSLE]
t1/2: 5.1
//
binder: EMFLTVPES [cdr2 293-301 EMFLTVPES]
t1/2: 1.38
//
binder: QSLLEEMFL [cdr2 288-296 QSLLEEMFL]
t1/2: 5.44
//
binder: SLSHKAVQT [cdr2 373-381 SLSHKAVQT]
t1/2: 0.8
//
binder: KLVPDSLYV [cdr2 273-281 KLVPDSLYV]
t1/2: 6.1

Hey, just so you know, these numbers are from patent US20090208538A1.
